Experiment: Tryptophan fluorescent binding assay
Conditions: tryptophan fluorescence; 50 µM peptide, lipid titrated 0-5000 µM; phosphate buffered saline 1X, pH 7.4; values as lipid per peptide
Peptide text beside a SMILES is read from it.
// reported Lipid Concentration-induced 50% Peptide Binding (L/P), 3POPC/1POPG Vesicle for each item listed
Note to self: number, then unit, no commentary.

| compound | reading |
| --- | --- |
| CC(C)C[C@H](NC(=O)CN)C(=O)N[C@@H](CC(C)C)C(=O)N[C@@H](CCCCN)C(=O)N[C@@H](CC(C)C)C(=O)N[C@@H](CC(C)C)C(=O)N[C@@H](CCC(=O)O)C(=O)N[C@@H](CC(C)C)C(=O)N[C@@H](CC(C)C)C(=O)N[C@@H](CC(C)C)C(=O)N[C@@H](Cc1c[nH]cn1)C(=O)N[C@@H](C)C(=O)N[C@@H](C)C(=O)NCC(=O)N[C@@H](Cc1c[nH]c2ccccc12)C(N)=O [KEH] (H-GLLKLLELLLHAAGW-NH2) | 0.50 L/P |

Request: If you can, please state the reported Lipid Concentration-induced 50% Peptide Binding (L/P), 3POPC/1POPG Vesicle value of CC(C)C[C@H](NC(=O)CN)C(=O)N[C@@H](CC(C)C)C(=O)N[C@@H](CCCCN)C(=O)N[C@@H](CC(C)C)C(=O)N[C@@H](CC(C)C)C(=O)N[C@@H](CCCCN)C(=O)N[C@@H](CC(C)C)C(=O)N[C@@H](CC(C)C)C(=O)N[C@@H](CC(C)C)C(=O)N[C@@H](CCCCN)C(=O)N[C@@H](C)C(=O)N[C@@H](C)C(=O)NCC(=O)N[C@@H](Cc1c[nH]c2ccccc12)C(N)=O [KKK] (H-GLLKLLKLLLKAAGW-NH2) .
Result: 1.70 L/P
